- Assayed Target: EML4-ALK (Homo sapiens, UniProt Q9UM73)
- Construct: endogenous in cells; host or cells: H3122 (NSCLC), single-cell clone after CRISPR knock-in of HiBit; the other entry of the earlier key: EML4 (Q9HC35, Echinoderm microtubule-associated protein-like 4)
- Sequence (Q9UM73 with tags, fused parts or gaps): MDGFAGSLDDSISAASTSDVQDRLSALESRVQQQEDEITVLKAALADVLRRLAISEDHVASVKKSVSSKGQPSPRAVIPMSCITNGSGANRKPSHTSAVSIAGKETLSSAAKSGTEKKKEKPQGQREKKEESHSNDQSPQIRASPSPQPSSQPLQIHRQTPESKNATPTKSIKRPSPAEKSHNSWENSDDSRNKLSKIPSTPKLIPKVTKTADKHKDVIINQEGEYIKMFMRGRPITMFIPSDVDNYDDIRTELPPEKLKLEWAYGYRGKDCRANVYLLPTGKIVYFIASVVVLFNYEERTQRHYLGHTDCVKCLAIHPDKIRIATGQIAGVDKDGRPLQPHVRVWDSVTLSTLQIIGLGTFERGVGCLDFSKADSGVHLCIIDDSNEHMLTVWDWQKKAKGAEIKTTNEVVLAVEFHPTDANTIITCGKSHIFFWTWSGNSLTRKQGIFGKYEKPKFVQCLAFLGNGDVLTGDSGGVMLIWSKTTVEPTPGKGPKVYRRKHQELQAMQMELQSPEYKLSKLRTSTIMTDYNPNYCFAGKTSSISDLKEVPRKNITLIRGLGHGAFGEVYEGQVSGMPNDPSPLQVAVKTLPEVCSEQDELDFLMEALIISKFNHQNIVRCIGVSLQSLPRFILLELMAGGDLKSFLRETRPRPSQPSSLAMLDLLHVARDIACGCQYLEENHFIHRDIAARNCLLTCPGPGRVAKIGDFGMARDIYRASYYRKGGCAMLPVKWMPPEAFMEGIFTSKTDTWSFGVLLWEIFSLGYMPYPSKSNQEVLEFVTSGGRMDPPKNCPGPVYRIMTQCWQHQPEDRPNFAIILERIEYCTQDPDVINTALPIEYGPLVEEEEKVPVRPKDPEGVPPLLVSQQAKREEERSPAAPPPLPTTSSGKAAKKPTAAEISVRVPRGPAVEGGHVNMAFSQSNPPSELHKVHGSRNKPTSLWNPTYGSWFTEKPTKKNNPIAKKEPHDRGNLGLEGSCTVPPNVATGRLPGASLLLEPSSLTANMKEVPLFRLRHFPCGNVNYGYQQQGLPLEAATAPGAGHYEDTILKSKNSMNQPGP
- Method Notes: EML4-ALK HiBit degradation assay in CRISPR-tagged H3122 cells (Nano-Glo HiBit Lytic Detection)
- Format: cell-based
- Assay Setup: NCI-H3122, Table 2; average Dmax; read-out: Degradation Avg. Dmax
Checkbox rule: Dmax lower than 40% = YES; Dmax not lower than 40% = NO.

COc1cc(CCN(C)C(=O)CCCCCCCCNc2cccc3c2C(=O)N(C2CCC(=O)NC2=O)C3=O)c(C)cc1Nc1ncc(Cl)c(Nc2ccccc2P(C)(C)=O)n1 (stereo not shown) [Compound 66]
YES

Is 40% strictly greater than the molecule's reported Dmax? molecule: COc1cc(CCN(C)C(=O)CCCC#Cc2cccc3c2C(=O)N(C2CCC(=O)NC2=O)C3=O)c(C)cc1Nc1ncc(Cl)c(Nc2ccccc2P(C)(C)=O)n1 (stereo not shown) [Compound 61]
YES

Is 40% strictly greater than the molecule's reported Dmax? molecule: COc1cc(CCNCCCCCSC(C)(C)C(NC(C)=O)C(=O)N2C[C@H](O)C[C@H]2C(=O)N[C@@H](C)c2ccc(-c3scnc3C)cc2)c(C)cc1Nc1ncc(Cl)c(Nc2ccccc2P(C)(C)=O)n1 (stereo partly shown) [Compound 73]
NO

Is 40% strictly greater than the molecule's reported Dmax? molecule: COc1cc(CCNCCCC(=O)N[C@H](C(=O)N2C[C@H](O)C[C@H]2C(=O)N[C@@H](C)c2ccc(-c3scnc3C)cc2)C(C)(C)C)c(C)cc1Nc1ncc(Cl)c(Nc2ccccc2P(C)(C)=O)n1 [Compound 72]
YES

Reference source: patent US20230158157A1
